Experiment: Solubility of Compound I in various vehicles (high throughput screening, HPLC assay of solution phase)
Format: physicochemical
Details: aqueous with cosolvent or surfactant or cyclodextrin, thermodynamic from solid; vehicle Methyl Cellulose (aqueous solution); free base; read-out: Solubility in vehicle at ambient temperature
propertyLabel: solubility

Entry CC(C)(F)[C@H](c1cc(F)cc(C#N)c1)C1CN([C@@H](c2ccc(Cl)cc2)c2cccc(-c3n[nH]c(=O)o3)c2)C1 : reported solubility = ?
< 40 µg/mL

###

Assay: Solubility of Compound I in various vehicles (high throughput screening, HPLC assay of solution phase)
Type: physicochemical
Conditions: water; statement in description; read-out: solubility in water
Method: Solubility of Compound 1 was determined using a high throughput screening method. The above solubilities were determined by adding Compound I to the test system and stirred. Following an equilibrium time, the material in the solution phase is assayed by HPLC to determine solubility.
propertyLabel: solubility (µg/mL)
Numeric answer only, unit µg/mL assumed.

Which measured solubility value corresponds to CC(C)(F)[C@H](c1cc(F)cc(C#N)c1)C1CN([C@@H](c2ccc(Cl)cc2)c2cccc(-c3n[nH]c(=O)o3)c2)C1 ?
1

###

Experiment: Solubility of Compound I in various vehicles (high throughput screening, HPLC assay of solution phase)
Type: physicochemical
Conditions: aqueous with cosolvent or surfactant or cyclodextrin, thermodynamic from solid; vehicle Vitamin E TPGS (aqueous solution); free base; read-out: Solubility in vehicle at ambient temperature
propertyLabel: solubility

Param item = CC(C)(F)[C@H](c1cc(F)cc(C#N)c1)C1CN([C@@H](c2ccc(Cl)cc2)c2cccc(-c3n[nH]c(=O)o3)c2)C1 [Compound I] ; retrieve measured solubility.
< 40 µg/mL

###

Assay: Solubility of Compound I in various vehicles (high throughput screening, HPLC assay of solution phase)
Format: physicochemical
Conditions: aqueous with cosolvent or surfactant or cyclodextrin, thermodynamic from solid; vehicle POLYSORBATE 80 (aqueous solution); free base; read-out: Solubility in vehicle at ambient temperature
propertyLabel: solubility

Query (molecule): CC(C)(F)[C@H](c1cc(F)cc(C#N)c1)C1CN([C@@H](c2ccc(Cl)cc2)c2cccc(-c3n[nH]c(=O)o3)c2)C1 ; field requested: solubility
< 40 µg/mL

###

Experiment: Solubility of Compound I in various vehicles (high throughput screening, HPLC assay of solution phase)
Assay type: physicochemical
Conditions: aqueous with cosolvent or surfactant or cyclodextrin, thermodynamic from solid; vehicle CREMOPHOR EL (aqueous solution); free base; read-out: Solubility in vehicle at ambient temperature
propertyLabel: solubility

Find the recorded solubility belonging to CC(C)(F)[C@H](c1cc(F)cc(C#N)c1)C1CN([C@@H](c2ccc(Cl)cc2)c2cccc(-c3n[nH]c(=O)o3)c2)C1 and report it.
< 40 µg/mL

###

Test: Solubility of Compound I in various vehicles (high throughput screening, HPLC assay of solution phase)
Assay type: physicochemical
Conditions: aqueous with cosolvent or surfactant or cyclodextrin, thermodynamic from solid; vehicle Sodium lauryl sulfate (aqueous solution); free base; read-out: Solubility in vehicle at ambient temperature
propertyLabel: solubility

If you can, please state the reported solubility value of CC(C)(F)[C@H](c1cc(F)cc(C#N)c1)C1CN([C@@H](c2ccc(Cl)cc2)c2cccc(-c3n[nH]c(=O)o3)c2)C1 .
< 40 µg/mL

###

Assay: Solubility of Compound I in various vehicles (high throughput screening, HPLC assay of solution phase)
Format: physicochemical
Settings: fassgf or other biorelevant, thermodynamic from solid; vehicle Simulated gastric fluids (fasted and fed); free base; read-out: Solubility in vehicle at ambient temperature
propertyLabel: solubility

Which value of solubility has been reported for CC(C)(F)[C@H](c1cc(F)cc(C#N)c1)C1CN([C@@H](c2ccc(Cl)cc2)c2cccc(-c3n[nH]c(=O)o3)c2)C1 in the records?
< 40 µg/mL

Hello, the source for this data is patent US20100081642A1, in case you need it.
